assay protocol: parental Ba/F3 cell viability inhibition, counter-screen for JAK2V617F inhibitor project, murine pro-B, CellTiter-Glo luminescence (AID 1486);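 also: 0% = DMSO wells and 100% = JAK Inhibitor I control wells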
test context: CellTiter-Glo ATP luminescence, at 5.6 µM, stronger effect = higher value
In all, about 220,000 compounds went through this assay and about 2,400 (1.1%) were called active. For the sample, actives were picked, then their nearest neighbours and some compounds at random.
I'd appreciate it if you could supply inhibition values for the items below.
Answers are plain numbers, in %.

Examples with their reported inhibition follow.
1. Cc1nc2ccccc2nc(=O)c1NNc1ccc([N+](=O)[O-])cc1 : 4.24
2. CCOc1ccc(N2C(=O)CC(N(O)c3ccccc3)C2=O)cc1 (stereo not drawn) : -1.11
3. Cc1cc(C(=O)CSc2nc(N)cc(=O)[nH]2)c(C)n1CCc1ccc(Cl)cc1 : 6.39
4. CN(C)/C(CN1CCCCC1)=C1\N=C(c2ccccc2)OC1=O : 7.38
5. CCCOn1c(-n2nc(C)cc2C)nc2ccccc2c1=O : 34
6. Cc1ccc(F)cc1NC(=O)Cc1nn(C)c(=O)c2ccccc12 : 37.3
7. CNC(=O)COc1ccc(S(=O)(=O)Nc2ccccc2)cc1 : 0.46
8. O=C(Nn1c(SCc2ccc([N+](=O)[O-])cc2)nc2ccccc2c1=O)c1ccc(F)cc1 : -1.55

Give measured inhibition for every item shown.
1. COC(=O)C(C)NC(=O)COc1ccc2ccccc2c1 (stereo not drawn)
2. COc1cc2c(cc1OC)CN(C(=O)c1cc(=O)c3ccccc3o1)CC2
3. Cn1c(=O)c2c(nc(NCCc3ccccc3)n2Cc2ccccc2)n(C)c1=O
4. Cc1ccc(S(=O)(=O)N2CCCC2C(=O)OCc2nc3sc(C)c(C)c3c(=O)[nH]2)cc1 (stereo not drawn)
5. C[n+]1ccc(/C=C/c2c[nH]c3ccccc23)cc1

Result:
1: 1.41; 2: 24.8; 3: 6.77; 4: 3.55; 5: 75.7

Give measured inhibition for every item shown.
1. CCOn1c(SC(C)C)nc2ccccc2c1=O
2. CCOc1cc(C(=O)N2CCc3cc(OC)c(OC)cc3C2)ccc1OC(F)F
3. CCOCCCn1c(NN)nc2ccccc2c1=O

Result:
1: 3.34; 2: 78.2; 3: 1.96
